target: T1, human IgEλ (U266 derived) (human, UniProt P01854-1 1-428); test: HTRF competition: scFv against Eu-cryptate human IgE binding to human FcεRI-Fc
T1 construct: Whole IgE purified from U266 cells (Ikeyama et al. 1986); labelled with europium cryptate or biotin in some assays; also called human IgE (U266-derived); human IgE lambda
T1 sequence (P01854 other isoform, or with tags, fused parts or gaps): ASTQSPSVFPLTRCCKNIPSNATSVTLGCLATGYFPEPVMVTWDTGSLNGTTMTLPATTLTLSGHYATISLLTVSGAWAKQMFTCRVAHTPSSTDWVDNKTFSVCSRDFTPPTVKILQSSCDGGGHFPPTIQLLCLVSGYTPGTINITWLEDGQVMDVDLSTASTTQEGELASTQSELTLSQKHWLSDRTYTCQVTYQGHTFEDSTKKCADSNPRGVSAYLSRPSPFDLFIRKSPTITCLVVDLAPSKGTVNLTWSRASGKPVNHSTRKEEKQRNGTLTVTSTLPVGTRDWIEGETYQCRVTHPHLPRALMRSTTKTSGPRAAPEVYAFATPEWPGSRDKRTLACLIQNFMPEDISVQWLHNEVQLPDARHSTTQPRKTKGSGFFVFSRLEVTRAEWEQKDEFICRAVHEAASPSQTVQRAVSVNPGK
pIC50: −log10 of the molar value.
observed property: pIC50

[[record]]
binder = "Antibody 10 scFv (scFv, V domains shown, Purified scFv, non-germlined) VH: QVQLVQSGAEVKKPGATVKLSCKVYGYIFTDYNIYWVRQAPGKGLEWMGLIDPDNGETFYAEKFQGRATMTADTSSDRAYMELTSLTFEDTATYYCATVSLRAAKGGYDYWGRGTLVTVSS VL: QSVLTQPPSVSGAPGQRVTISCTGSSSNIGAGYDVHWYQQLPGTAPKLLIYDNFNRPSGVPDRFSGSKSGTSASLAIIGLQTEDEADYYCQSYDSEQELAPFGTGTKLTVL"
observed_property = "pIC50"
value_measured = 8.00

[[record]]
binder = "Antibody 26 scFv (scFv, V domains shown, Purified scFv, non-germlined) VH: QVQLVQSGAEVKKPGATVKLSCKVYGYIFTDYNIYWVRQAPGKGLEWMGLIDPDNGETFYAEKFQGRATMTADTSSDRAYMELTSLTFEDTATYYCATVSLKEAKGGYDYWGRGTLVTVSS VL: QSVLTQPPSVSGAPGQRVTISCTGSSSNIGAGYDVHWYQQLPGTAPKLLIYDNFNRPSGVPDRFSGSKSGTSASLAIIGLQTEDEADYYCQSYDSASRHAPFGTGTKLTVL"
observed_property = "pIC50"
value_measured = 7.92

